Tested on: NCI-H522 lung
method-description: NCI-60 one-dose screen, 48 h (100 = growth as untreated, 0 = no growth, -100 = all killed)
measurement-context: 10 µM unless noted
This is part of a sample that, as a whole, favours compounds with a hit. Of some 83,000 tested, about 20% had one in any assay.
Binary label based on growth with cut-off 50%: below gives class 1, not below gives class 0.

[[record]]
compound = "COc1ccc(/C=N\\NC(=O)c2ccncc2)cc1O"
answer_label = "class 0"

[[record]]
compound = "O=C(/C=C/c1ccc(Cl)cc1)c1ccc(O)c(CN2CCN(c3cc4c(cc3F)c(=O)c(C(=O)O)cn4C3CC3)CC2)c1"
answer_label = "class 1"

[[record]]
compound = "C[C@@H]1CCC2=C(CCC[C@]2(C)C(=O)O)[C@@]1(C)CCc1ccoc1"
answer_label = "class 0"

[[record]]
compound = "COc1cc(-c2c3sc(=O)[nH]c3nc3c2c(=O)[nH]n3C(C)C)cc2c1OCO2"
answer_label = "class 0"

[[record]]
compound = "O=C(NCc1cccc(C(F)(F)F)c1)[C@H](CCC(=O)N1CCN(C2CCCCC2)CC1)N1C(=O)[C@@H](N2C(=O)OC[C@@H]2c2ccccc2)[C@H]1/C(Cl)=C/c1ccccc1"
answer_label = "class 1"

[[record]]
compound = "COc1ccc2nc3cc(Cl)ccc3c(NCCNCC(O)CO)c2c1 (stereo not given)"
answer_label = "class 1"

[[record]]
compound = "O=C(/C=C\\c1cccc([N+](=O)[O-])c1)c1ccccc1"
answer_label = "class 1"

[[record]]
compound = "COc1cc(OC)c(/C=C/S(=O)(=O)Cc2ccc(OC)c(N)n2)c(OC)c1"
answer_label = "class 1"

[[record]]
compound = "C=CC[N+]1(CCO)CCN=C1CCCCCCCCCCCCC (stereo not given)"
answer_label = "class 1"

[[record]]
compound = "Cc1ccc(S(=O)(=O)N(CCc2ccc(Cl)cc2)S(=O)(=O)c2ccc(C)cc2)cc1"
answer_label = "class 0"

[[record]]
compound = "CCN(CC)C12CCCCC1(C)C(C#N)(C#N)C(C#N)=C(N)O2 (stereo not given)"
answer_label = "class 0"

[[record]]
compound = "Cc1ccc(C2CC3c4ccccc4C2C2CCCCN32)cc1 (stereo not given)"
answer_label = "class 0"

[[record]]
compound = "CN(C)C(=O)c1cc2cnc(Nc3ccc(-c4csc5c(=O)cc(N6CCNCC6)oc45)cc3)nc2n1C1CCCC1"
answer_label = "class 1"

[[record]]
compound = "C/C(Cc1ccc(Cl)cc1)=C(\\c1ccc(OCCN2CCCCCC2)cc1)c1ccc(OC(=O)Cc2ccccc2)cc1"
answer_label = "class 0"

[[record]]
compound = "CCOC(=O)c1cnc2ccc(OC)cc2c1Nc1cccc(S(=O)(=O)NC)c1"
answer_label = "class 0"

[[record]]
compound = "COc1cc(/C=N\\NC(=O)CN2CCN(c3cc4c(cc3F)c(=O)c(C(=O)N/N=C/c3ccc(O)c(OC)c3)cn4C3CC3)CC2)ccc1O"
answer_label = "class 1"

[[record]]
compound = "CCN(CC)CCCNc1cccc2c(SCc3ccccc3)ccnc12"
answer_label = "class 0"

[[record]]
compound = "CCN(CC)CCCC(C)Nc1ccnc2c(OC)cccc12 (stereo not given)"
answer_label = "class 0"

[[record]]
compound = "CCCCN(CCCC)Cc1c(C)[nH]c2cc(OC)ccc2c1=O"
answer_label = "class 0"

[[record]]
compound = "COc1cccc(-c2cn3c(ccc4ccccc43)n2)c1"
answer_label = "class 1"

[[record]]
compound = "COc1ccc(C2c3ccc4ccccc4c3Oc3ncnc(N)c32)cc1 (stereo not given)"
answer_label = "class 1"

[[record]]
compound = "Cn1c2ccccc2c2c3c(c4c5ccccc5n(CCCCCC#N)c4c21)C(=O)N(O)C3=O"
answer_label = "class 1"

[[record]]
compound = "CC(=O)Nc1ccc2c(c1)c(NC(C)=O)nn2C(=O)Nc1ccc(Cc2ccccc2)cc1"
answer_label = "class 0"

[[record]]
compound = "O=C(/C=C\\c1ccc2ccccc2n1)c1cc(Cl)ccc1O"
answer_label = "class 0"

[[record]]
compound = "Cc1ccc2c(NCCCN(C)C)c3c(C)nn(C)c3nc2c1"
answer_label = "class 1"

[[record]]
compound = "COc1cc(C2CC(=O)Nc3c2c(C)nn3-c2nc3ccccc3[nH]2)cc(OC)c1OC (stereo not given)"
answer_label = "class 0"

[[record]]
compound = "O=[N+]([O-])c1cccc(-c2nc3sccn3c2-c2ccnc(NCCNS(=O)(=O)c3ccc(C(F)(F)F)cc3)n2)c1"
answer_label = "class 1"

[[record]]
compound = "COCCCN=C(N)c1ccc(NC(=O)c2ccc(C(=O)Nc3ccc(C(N)=NCCCOC)cc3)cc2)cc1"
answer_label = "class 0"

[[record]]
compound = "OCC1C2C=CC(C2)C1CO (stereo not given)"
answer_label = "class 0"

[[record]]
compound = "COc1cccc(NC(=O)c2sc3nc4c(cc3c2N)CN(Cc2ccccc2)CC4)c1"
answer_label = "class 0"

[[record]]
compound = "O=C1Nc2ccc(Br)cc2C12CC(c1ccccc1)=NN2 (stereo not given)"
answer_label = "class 1"

[[record]]
compound = "O=C(CN1CCN(c2cc3c(cc2F)c(=O)c(C(=O)O)cn3C2CC2)CC1)Nc1nc(-c2ccc(Cl)cc2)cs1"
answer_label = "class 1"

[[record]]
compound = "CCN(CC)CCCNc1cc(OC)cc2nc3cc(Cl)ccc3nc12"
answer_label = "class 1"

[[record]]
compound = "Nc1c(C(=O)Nc2ccccc2)sc2nc3c(cc12)CN(CCc1ccccc1)CC3"
answer_label = "class 0"

[[record]]
compound = "CS(=O)(=O)c1ccc(-c2cnc3ccc(-c4cccc(S(C)(=O)=O)c4)nn23)cc1"
answer_label = "class 0"

[[record]]
compound = "COc1cc(-c2c3c(nc4c2c(C)nn4-c2ccccc2)-c2ccccc2C(=O)C3=O)cc(OC)c1OC"
answer_label = "class 0"

[[record]]
compound = "CCCCCCCCCCCCCC(=O)C(C)N (stereo not given)"
answer_label = "class 1"

[[record]]
compound = "COC1C/C(=N\\O)C2OC(c3ccccc3)OCC2O1 (stereo not given)"
answer_label = "class 0"

[[record]]
compound = "COc1ccc(-c2cc(NC(=O)Nc3ccc(O)cc3)no2)cc1"
answer_label = "class 1"

[[record]]
compound = "C/C(=C(/c1ccc(O)cc1)c1ccc(OCCN(C)C)cc1)c1ccccc1"
answer_label = "class 0"


----------
Tested on: CAKI-1 renal
method-description: NCI-60 one-dose screen, 48 h
measurement-context: 10 µM unless noted
The panel holds about 83,000 compounds, 20% with a hit somewhere; the sample as a whole holds those more often. Calls of active or inactive are those of the source. The calls were made as follows: active = growth percent below 10; inactive = the rest.
Outcome codes: 1 for active, -1 for inactive

[[record]]
molecule = "O=C1/C(=C/c2ccc(F)cc2)CN(C(=O)CCN2CCC(=NO)CC2)C/C1=C\\c1ccc(F)cc1"
tested_target = "CAKI-1 renal"
answer_label = 1

[[record]]
molecule = "N#Cc1c2c(nc3n[nH]c(N)c13)CCCC2"
tested_target = "CAKI-1 renal"
answer_label = -1

[[record]]
molecule = "CC1=C(NCCN2CCCC2)C(=O)c2c(OCc3ccc(C(F)(F)F)cc3)cccc2C1=O"
tested_target = "CAKI-1 renal"
answer_label = -1

[[record]]
molecule = "CCCCCCCCCC(=O)Oc1ccc(/C(=C(/C)Cc2cccc(OC)c2)c2ccc(OCCN(C)C)cc2)cc1"
tested_target = "CAKI-1 renal"
answer_label = -1

[[record]]
molecule = "Cc1ccc(/C=C2\\Oc3cc(OCC(=O)c4ccc(Cl)cc4)ccc3C2=O)cc1"
tested_target = "CAKI-1 renal"
answer_label = -1

[[record]]
molecule = "CC/C(Cc1ccccc1)=C(\\c1ccc(OCCN2CCCC2)cc1)c1ccc(OC(C)=O)cc1"
tested_target = "CAKI-1 renal"
answer_label = -1

[[record]]
molecule = "O=C(Nc1ccc(Nc2cc(Nc3ccccc3)ncn2)cc1)Nc1cc(C(F)(F)F)ccc1F"
tested_target = "CAKI-1 renal"
answer_label = -1

[[record]]
molecule = "Cn1cc(-c2nc(-c3c[nH]c4ccccc34)cs2)c2cccnc21"
tested_target = "CAKI-1 renal"
answer_label = -1

[[record]]
molecule = "COc1cc(C2CC(=O)c3c(C)nn(-c4nc5ccccc5[nH]4)c3C2)cc(OC)c1OC (stereo not given)"
tested_target = "CAKI-1 renal"
answer_label = -1

[[record]]
molecule = "Nc1ccc2c(c1)C(=O)NC2=O"
tested_target = "CAKI-1 renal"
answer_label = -1

[[record]]
molecule = "O=C(CN1CCN(c2cc3c(cc2F)c(=O)c(C(=O)O)cn3C2CC2)CC1)Nc1nc(-c2ccccc2)cs1"
tested_target = "CAKI-1 renal"
answer_label = -1

[[record]]
molecule = "CC[C@H](Nc1ncnc(N)c1C(N)=O)c1nc2cccc(NCc3ccc(C(=O)NO)cc3)c2c(=O)n1-c1ccccc1"
tested_target = "CAKI-1 renal"
answer_label = -1

[[record]]
molecule = "O=C(CO[N+](=O)[O-])Nc1ccc(C(=O)/C=C/c2ccc(Cl)cc2)cc1"
tested_target = "CAKI-1 renal"
answer_label = -1

[[record]]
molecule = "O=c1c(/C=C/c2ccco2)nnc(SCCN2CCOCC2)n1/N=C/c1ccc([N+](=O)[O-])cc1"
tested_target = "CAKI-1 renal"
answer_label = -1

[[record]]
molecule = "CN1CCN(Cc2ccc(NC(=O)c3[nH]ncc3Nc3ccnc4ccsc34)cc2)CC1"
tested_target = "CAKI-1 renal"
answer_label = -1

[[record]]
molecule = "CCc1ccc(C(c2ccc(CC)cc2)C(Cl)(Cl)CCl)cc1"
tested_target = "CAKI-1 renal"
answer_label = -1

[[record]]
molecule = "Clc1nc(Cl)c2c3c(sc2n1)CCCC3"
tested_target = "CAKI-1 renal"
answer_label = -1

[[record]]
molecule = "COc1ccc(Cl)cc1Nc1nc(C(F)(F)F)ccc1C(=O)N/N=C/c1cccnc1"
tested_target = "CAKI-1 renal"
answer_label = -1

[[record]]
molecule = "COc1cccc(/C=C\\C(=O)c2ccccc2)c1"
tested_target = "CAKI-1 renal"
answer_label = -1

[[record]]
molecule = "CCC(=O)Oc1ccc(/C(=C(\\C)c2ccccc2)c2ccc(OCCN(CC)CC)cc2)cc1"
tested_target = "CAKI-1 renal"
answer_label = -1

[[record]]
molecule = "Oc1ccc2c(=S)cc(-c3ccc(Br)cc3)oc2c1O"
tested_target = "CAKI-1 renal"
answer_label = -1

[[record]]
molecule = "COc1ncc(-c2ccc3ncnc(Nc4cccc(Cl)c4)c3c2)cc1NS(C)(=O)=O"
tested_target = "CAKI-1 renal"
answer_label = -1

[[record]]
molecule = "CN1Cc2c(cc(CN3CCCCC3)n2C)C(c2ccc(Br)cc2)C1 (stereo not given)"
tested_target = "CAKI-1 renal"
answer_label = -1

[[record]]
molecule = "CCCCCCCCCCCCCCCCCCNC(=O)[C@H]1CSC(c2ccc(OC)c(F)c2)N1 (stereo not given in full)"
tested_target = "CAKI-1 renal"
answer_label = -1

[[record]]
molecule = "C=C1C(=O)O[C@H]2[C@H]1CC/C(Cn1cc(Cn3ccc4cc(Cl)ccc43)nn1)=C\\CC[C@@]1(C)O[C@@H]21"
tested_target = "CAKI-1 renal"
answer_label = 1

[[record]]
molecule = "COC(=S)SCN(CSC(=S)OC)c1ccc(Cl)cc1"
tested_target = "CAKI-1 renal"
answer_label = -1

[[record]]
molecule = "COc1ccc(-c2cn3c(-c4ccc(OC)cc4)cnc3c(Oc3ccc4c(C)cc(=O)oc4c3)n2)cc1"
tested_target = "CAKI-1 renal"
answer_label = -1

[[record]]
molecule = "Cn1c2ccccc2c2c3[nH]c(=O)[nH]c(=O)c3c3c4ccccc4n(C)c3c21"
tested_target = "CAKI-1 renal"
answer_label = -1

[[record]]
molecule = "COc1cc2cc(COc3nccc(-c4ccc(Cl)cc4)n3)c(=O)[nH]c2cc1OC"
tested_target = "CAKI-1 renal"
answer_label = -1

[[record]]
molecule = "CCOC(=O)c1cnc2ccc(Br)cc2c1Nc1cccc(S(=O)(=O)NC)c1"
tested_target = "CAKI-1 renal"
answer_label = -1

[[record]]
molecule = "Cc1sc2nc3[nH]/c(=C\\c4ccc(Cl)cc4)c(=O)n3c(=O)c2c1C"
tested_target = "CAKI-1 renal"
answer_label = -1

[[record]]
molecule = "Cn1c2ccccc2c2c3c(c4c5ccccc5n(CCCCCC#N)c4c21)C(=O)N(O)C3=O"
tested_target = "CAKI-1 renal"
answer_label = 1

[[record]]
molecule = "CSc1ncnc2c1ncn2C1CCCO1 (stereo not given)"
tested_target = "CAKI-1 renal"
answer_label = -1

[[record]]
molecule = "O=C(Nc1cccc2c1C(=O)c1cccc(Nc3cccc4c3C(=O)c3cccc(NC(=O)c5ccccc5)c3C4=O)c1C2=O)c1ccccc1"
tested_target = "CAKI-1 renal"
answer_label = -1

[[record]]
molecule = "COc1cc(OC)c(/C=C/c2cc[n+](C)c3ccccc23)c(OC)c1"
tested_target = "CAKI-1 renal"
answer_label = -1

[[record]]
molecule = "COc1ccc(OCC(=O)Nc2ccc(-c3nc4ccccc4s3)cc2C)cc1"
tested_target = "CAKI-1 renal"
answer_label = -1

[[record]]
molecule = "Cc1nn(-c2ccccc2)c2nc(C)n(-c3ccc(Br)cc3)c(=O)c12"
tested_target = "CAKI-1 renal"
answer_label = -1

[[record]]
molecule = "COc1cc2nc3cc([N+](=O)[O-])ccc3c(NCCCNCC(C)(C)O)c2cc1OC"
tested_target = "CAKI-1 renal"
answer_label = -1

[[record]]
molecule = "CCN(CC)CCCNc1cccc2c(SCc3ccccc3)ccnc12"
tested_target = "CAKI-1 renal"
answer_label = -1

[[record]]
molecule = "C/C(=C(/c1ccc(O)cc1)c1ccc(OCCN2CCCC2)cc1)c1ccccc1"
tested_target = "CAKI-1 renal"
answer_label = -1

